Listing of recorded Activity by entry.
- Test system: Rattus norvegicus
- Protocol: Toxicity in glucocorticoid-induced Wistar rat osteoporosis model assessed as alanine transaminase level at 30 mg/kg/day, po administered six times a week for 3 months (reference value: 43.73 +/- 36.21 U/L)
- Format: organism-based
- Design: route oral
- Experimental Parameters: in vivo
Give the number; U/L is assumed, so skip it.

Qu. State the recorded Activity for this entry: "CCOC(=O)c1ccc2cc(C(=O)/C=C/c3ccccc3)sc2c1"
Ans. 27

Qu. Give the measured Activity of "CCOC(=O)c1cc2ccc(OC)cc2o1" .
Ans. 27.67

Qu. Look at this molecule and give its reported Activity. "CCOC(=O)c1cc2ccc(C(=O)OC)cc2s1"
Ans. 26.25

Qu. Bench note: what Activity did "CC(=O)c1cc2ccc(C(=O)O)cc2s1" show?
Ans. 31.17

Qu. Find the recorded Activity belonging to "CC(=O)c1cc2cc(C(=O)O)ccc2s1" and report it.
Ans. 26.67

Qu. I am curious: what Activity value has been reported for "CC(=O)c1cc2ccccc2s1" ?
Ans. 35.25

Qu. Which Activity value belongs to "COC(=O)c1ccc2cc(C(C)=O)sc2c1" ?
Ans. 31.55

Qu. Fill blank: measured Activity of the molecule "CCOC(=O)c1cc2cc3c(cc2s1)OCO3" is ____.
Ans. 28.27

###

Recorded measurements of LD50 at 336 h, one per entry
- Protocol: Acute toxicity in po dosed Kunming mouse administered for 3 days measured during compound dosing and following 14 days
- Format: organism-based
- Experimental Parameters: in vivo

Some entries whose results are on file:
COC(=O)c1ccc2cc(C(C)=O)sc2c1 | > 700 mg/kg
CCOC(=O)c1cc2ccc(OC)cc2o1 | > 500 mg/kg
CCOC(=O)c1cc2ccc(C(=O)OC)cc2s1 | > 700 mg/kg
CC(=O)c1cc2cc(C(=O)O)ccc2s1 | > 500 mg/kg
CCOC(=O)c1cc2cc3c(cc2s1)OCO3 | > 500 mg/kg

Qu. Item under review: "CCOC(=O)c1ccc2cc(C(=O)/C=C/c3ccccc3)sc2c1" . Reported LD50 at 336 h?
Ans. > 500 mg/kg

###

Below is a list of entries, each paired with its recorded Activity value.
- Test system: Rattus norvegicus
- Protocol: Toxicity in glucocorticoid-induced Wistar rat osteoporosis model assessed as neutrophilic granulocytes level at 30 mg/kg/day, po administered six times a week for 3 months (reference value: 31.95 +/- 8.33%)
- Type: organism-based
- Design: route oral
- Experimental Parameters: in vivo
// note: answer is a bare numeric in %

CC(=O)c1cc2ccccc2s1 | 43.25
CCOC(=O)c1cc2cc3c(cc2s1)OCO3 | 41.49
CC(=O)c1cc2cc(C(=O)O)ccc2s1 | 47.71
CC(=O)c1cc2ccc(C(=O)O)cc2s1 | 47.16
CCOC(=O)c1cc2ccc(OC)cc2o1 | 38.96
CCOC(=O)c1ccc2cc(C(=O)/C=C/c3ccccc3)sc2c1 | 41.98
COC(=O)c1ccc2cc(C(C)=O)sc2c1 | 48.93

Okay, next one:
Qu. Field request: Activity | item: "CCOC(=O)c1cc2ccc(C(=O)OC)cc2s1"
Ans. 40.03

###

Activity listing for selected compounds.
- System: Rattus norvegicus
- Protocol: Antiosteoporotic activity in glucocorticoid-induced Wistar rat osteoporosis model assessed as trabecula resorption surface at 30 mg/kg/day, po administered six times a week for 3 months by fluorescence assay (reference value: 7.22 +/- 2.04%)
- Type: functional
Expressed in %, but write only the number.

Qu. Requested read-out: Activity. Entry: "CCOC(=O)c1cc2ccc(C(=O)OC)cc2s1"
Ans. 8.92

Qu. Item under review: "CC(=O)c1cc2ccc(C(=O)O)cc2s1" . Reported Activity?
Ans. 10.9

Qu. Looking for the measured Activity of "CC(=O)c1cc2cc(C(=O)O)ccc2s1" , can you help?
Ans. 10.3

###

- Tested on: Rattus norvegicus
- Protocol: Toxicity in glucocorticoid-induced Wistar rat osteoporosis model assessed as effect on mean corpuscular hemoglobin concentration at 30 mg/kg/day, po administered six times a week for 3 months
- Assay type: organism-based
- Parameters: route oral
- Experimental Parameters: in vivo
Measured Endpoint: Activity

Example entries begin here.
CCOC(=O)c1cc2ccc(OC)cc2o1 | Non-toxic
CC(=O)c1cc2ccc(C(=O)O)cc2s1 | Non-toxic
CCOC(=O)c1cc2cc3c(cc2s1)OCO3 | Non-toxic
CC(=O)c1cc2cc(C(=O)O)ccc2s1 | Non-toxic
COC(=O)c1ccc2cc(C(C)=O)sc2c1 | Non-toxic
CCOC(=O)c1ccc2cc(C(=O)/C=C/c3ccccc3)sc2c1 | Non-toxic

Qu. Look up Activity: "CCOC(=O)c1cc2ccc(C(=O)OC)cc2s1"
Ans. Non-toxic

Qu. Find the recorded Activity belonging to "CC(=O)c1cc2ccccc2s1" and report it.
Ans. Non-toxic

###

- Test system: Rattus norvegicus
- Protocol: Toxicity in glucocorticoid-induced Wistar rat osteoporosis model assessed as white blood cells at 30 mg/kg/day, po administered six times a week for 3 months (reference value: 6.28 +/- 2.78 x 10^9/L)
- Format: organism-based
- Parameters: route oral
- Experimental Parameters: in vivo
Measured Endpoint: Activity (×10⁹ /L)
Report only the number, with the unit ×10⁹ /L understood.

Please review the following examples before continuing.
CCOC(=O)c1ccc2cc(C(=O)/C=C/c3ccccc3)sc2c1 | 2.83
COC(=O)c1ccc2cc(C(C)=O)sc2c1 | 4.52
CC(=O)c1cc2ccc(C(=O)O)cc2s1 | 3.55
CCOC(=O)c1cc2ccc(OC)cc2o1 | 2.83

Qu. Name the recorded Activity for "CC(=O)c1cc2ccccc2s1" .
Ans. 3.12

Qu. # get_value(readout='Activity', item= "CCOC(=O)c1cc2ccc(C(=O)OC)cc2s1" )
Ans. 3.03

Qu. Entry under review: "CCOC(=O)c1cc2cc3c(cc2s1)OCO3" . Reported Activity?
Ans. 3.27

Qu. Please report the recorded Activity for "CC(=O)c1cc2cc(C(=O)O)ccc2s1" .
Ans. 3.31

###

- Tested on: Rattus norvegicus
- Protocol: Toxicity in glucocorticoid-induced Wistar rat osteoporosis model assessed as aspartate transaminase level at 30 mg/kg/day, po administered six times a week for 3 months (reference value: 177.55 +/- 116.98 U/L)
- Type: organism-based
- Set-up: route oral
- Experimental Parameters: in vivo
Measured Activity by item
Response body: numeric value in U/L, unit text excluded.

CCOC(=O)c1cc2ccc(OC)cc2o1 | 110.08
CC(=O)c1cc2cc(C(=O)O)ccc2s1 | 103.17
COC(=O)c1ccc2cc(C(C)=O)sc2c1 | 119.08
CC(=O)c1cc2ccc(C(=O)O)cc2s1 | 123.33
CCOC(=O)c1cc2ccc(C(=O)OC)cc2s1 | 124.42
CC(=O)c1cc2ccccc2s1 | 129.83
CCOC(=O)c1cc2cc3c(cc2s1)OCO3 | 114.82

Now, please, on to the next compound.
Qu. # input compound: "CCOC(=O)c1ccc2cc(C(=O)/C=C/c3ccccc3)sc2c1" ; wanted: its Activity
Ans. 103.08

###

- Test system: Rattus norvegicus
- Protocol: Antiosteoporotic activity in glucocorticoid-induced Wistar rat osteoporosis model assessed as mineral apposition rate at 30 mg/kg/day, po administered six times a week for 3 months by fluorescence assay (reference value: 1.06 +/- 0.27 micrometer/day)
- Assay type: functional
Could you please mark y for values of Activity below 1 micrometer/day and n for values at or above it?

Field: example entries. Status: answers known.
CC(=O)c1cc2cc(C(=O)O)ccc2s1 | n
CCOC(=O)c1cc2ccc(C(=O)OC)cc2s1 | n
CCOC(=O)c1ccc2cc(C(=O)/C=C/c3ccccc3)sc2c1 | n
CCOC(=O)c1cc2cc3c(cc2s1)OCO3 | y
CC(=O)c1cc2ccc(C(=O)O)cc2s1 | y

Qu. A record lists "CC(=O)c1cc2ccccc2s1" . Is its Activity below 1 micrometer/day?
Ans. n

Qu. Please check: Activity for "CCOC(=O)c1cc2ccc(OC)cc2o1" , strictly under 1 micrometer/day or not?
Ans. n

###

- Tested on: Rattus norvegicus
- Protocol: Toxicity in glucocorticoid-induced Wistar rat osteoporosis model assessed as triglycerides level at 30 mg/kg/day, po administered six times a week for 3 months (reference value: 1.13 +/- 0.69 mmol/L)
- Assay type: organism-based
- Set-up: route oral
- Experimental Parameters: in vivo
Examples of molecules with documented Activity follow.
Your answer should be a plain number; it is taken to be in mmol/L.

# example entries with known answers
CCOC(=O)c1ccc2cc(C(=O)/C=C/c3ccccc3)sc2c1 | 0.29
COC(=O)c1ccc2cc(C(C)=O)sc2c1 | 0.52

Qu. What value of Activity has been reported for the following molecule? "CCOC(=O)c1cc2ccc(C(=O)OC)cc2s1"
Ans. 0.36

Qu. Data request, read-out Activity, for "CCOC(=O)c1cc2cc3c(cc2s1)OCO3"
Ans. 0.34
